Tested on: Glutathione S-Transferase
method: Glutathione S-transferase (GST) activity in tissue cytosol of treated mice, CDNB substrate
Format: in vivo, Female A/J mice
condition context: liver; dose 0.04 mmol/Kg body weight, gavage in corn oil
Marks after values point to notes of the source that are not given here.
GST act. values for the compounds below.

| compound | tested target | result |
| --- | --- | --- |
| N#C[Se]Cc1ccc[se]1 [(3) SMSC, 2-selenophenyl methylene selenocynate] | Glutathione S-Transferase | 2.02 ± 0.33 ^e μmol/min mg protein |

// moving on: another record for GST act.
Query: Hello, please tell me recorded GST act. for this one: [Se]=C=NCc1ccc(CN=C=[Se])[se]1 [(7) SDMISC]
Response: 3.00 ± 0.13 ^c μmol/min mg protein

* * *

Tested on: UDP-Glucuronosyltransferase (UDP-GT)
method: UDP-glucuronosyltransferase (UDP-GT) activity in liver microsomes of treated mice, o-aminophenol substrate
Type: in vivo, Female A/J mice
condition context: dose 0.02 mmol/Kg body weight, gavage in corn oil
Marks after values point to notes of the source that are not given here.
experimental readout: UDP-GT activity (column head prints GSH conc.)

For orientation, consider the following solved cases.
| molecule | tested target | result |
| --- | --- | --- |
| N#C[Se]Cc1ccc[se]1 [(3) SMSC, 2-selenophenyl methylene selenocynate] | UDP-Glucuronosyltransferase (UDP-GT) | 6.15 ± 1.20 ^d nmol/min/mg protein |
| N#C[Se]Cc1ccc(C[Se]C#N)s1 [(2) TDMSC, thienyl-2,5-di-methylene selenocyanate] | UDP-Glucuronosyltransferase (UDP-GT) | 7.00 ± 1.07 ^c nmol/min/mg protein |
| N#C[Se]Cc1ccc(C[Se]C#N)[se]1 [(4) SDMSC] | UDP-Glucuronosyltransferase (UDP-GT) | 10.17 ± 2.37 ^c nmol/min/mg protein |
| [Se]=C=NCc1ccc(CN=C=[Se])s1 [(6) TDMISC] | UDP-Glucuronosyltransferase (UDP-GT) | 6.08 ± 0.76 ^d nmol/min/mg protein |

Query: Hello, please tell me recorded UDP-GT activity (column head prints GSH conc.) for this one: [Se]=C=NCc1ccc(CN=C=[Se])[se]1 [(7) SDMISC]
Response: 10.37 ± 1.99 ^d nmol/min/mg protein

* * *

Tested on: Glutathione S-Transferase
method: Glutathione S-transferase (GST) activity in tissue cytosol of treated mice, CDNB substrate
Type: in vivo, Female A/J mice
condition context: lung; dose 0.02 mmol/Kg body weight, gavage in corn oil
Marks after values point to notes of the source that are not given here.
experimental readout: GST act.

Query: Hello, please tell me recorded GST act. for this one: `[Se]=C=NCc1ccc(CN=C=[Se])s1`
Response: 0.44 ± 0.04 ^f μmol/min mg protein

Query: Hello, please tell me recorded GST act. for this one: `N#C[Se]Cc1ccc(C[Se]C#N)[se]1`
Response: 0.58 ± 0.08 μmol/min mg protein

Query: Hello, please tell me recorded GST act. for this one: `[Se]=C=NCc1ccc(CN=C=[Se])[se]1`
Response: 0.45 ± 0.04 ^f μmol/min mg protein

* * *

Tested on: GSH
method: Glutathione (GSH) concentration in tissues of treated mice, HPLC
Format: in vivo, Female A/J mice
condition context: liver; dose 0.04 mmol/Kg body weight, gavage
experimental readout: Ratio Test/con (GSH)
Reply with the value as a number alone.

For orientation, consider the following solved cases.
| compound | Ratio Test/con (GSH) |
| --- | --- |
| N#C[Se]Cc1ccc(C[Se]C#N)cc1 [p-XSC, 1,4-phenylenebis(methylene)selenocyanate, reference compound] | 0.99 |
| N#C[Se]Cc1ccc[se]1 [(3) SMSC, 2-selenophenyl methylene selenocynate] | 1.38 |
| N#C[Se]Cc1ccc(C[Se]C#N)[se]1 [(4) SDMSC] | 1.39 |
| [Se]=C=NCc1ccc(CN=C=[Se])s1 [(6) TDMISC] | 1.49 |
| [Se]=C=NCc1ccc(CN=C=[Se])[se]1 [(7) SDMISC] | 1.20 |

// moving on: another record for Ratio Test/con (GSH)
Query: Hello, please tell me recorded Ratio Test/con (GSH) for this one: N#C[Se]Cc1ccc(C[Se]C#N)s1 [(2) TDMSC, thienyl-2,5-di-methylene selenocyanate]
Response: 1.20

The reported measurements were obtained from patent US7855232B2.
